Measured Avg 2 h Coupled Exchange IC50, listed per entry.
biological target: GDP-bound KRAS protein (aa 1-169), containing both G12D and C118A amino acid substitutions (Homo sapiens, UniProt P01116, C118A/G12D); assay: KRAS G12D Coupled Nucleotide Exchange Assay; type: biochemical; conditions: 2 h compound pre-incubation
Sequence (P01116 1-169 isoform P01116-2 G12D/C118A): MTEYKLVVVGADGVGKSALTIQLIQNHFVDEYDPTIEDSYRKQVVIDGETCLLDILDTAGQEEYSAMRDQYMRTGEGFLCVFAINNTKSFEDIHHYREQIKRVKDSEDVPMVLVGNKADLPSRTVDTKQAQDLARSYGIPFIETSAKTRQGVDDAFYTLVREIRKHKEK

# compound, Avg 2 h Coupled Exchange IC50, nM
data = [
    ("CCc1c(F)ccc2cc(O)cc(-c3c(F)cc4c(N5C[C@H]6CCC[C@@H](C5)N6)nc(OC[C@@]56CCCN5C[C@H](F)C6)nc4c3F)c12", 4),
    ("Oc1cc(-c2ccc3c(N4C[C@H]5CC[C@@H](C4)N5)nc(OC[C@@]45CCCN4C[C@H](F)C5)nc3c2F)c2c(Cl)cccc2c1", 4),
    ("CCc1c(F)ccc2cc(O)cc(-c3c(F)cc4c(N5C[C@H]6CC[C@@H](C5)N6)nc(OCC56CCCN5CC(F)(F)C6)nc4c3F)c12 (stereo partly drawn)", 4),
]

###

target: His-tagged KRAS G12D protein (Homo sapiens, UniProt P01116, G12D); assay: KRAS G12D TR-FRET Assay
Sequence (P01116 1-188 isoform P01116-2 G12D): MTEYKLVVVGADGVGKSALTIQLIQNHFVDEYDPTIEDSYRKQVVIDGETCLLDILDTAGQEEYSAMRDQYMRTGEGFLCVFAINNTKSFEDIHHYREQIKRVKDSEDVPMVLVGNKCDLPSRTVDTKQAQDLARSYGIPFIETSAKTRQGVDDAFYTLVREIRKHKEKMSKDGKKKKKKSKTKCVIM
pIC50: −log10 of the molar value.
Would you mind labelling by pIC50? At or over 6 is YES, under is NO.

# molecule, assay.system, assigned.label
measured = [
    ("CCc1c(F)ccc2cc(O)cc(-c3c(F)cc4c(N5C[C@H]6CC[C@@H](C5)N6)nc(OCC5(C)CCC(=O)O5)nc4c3F)c12 (some centres unmarked) [Example 212]", "His-tagged KRAS G12D protein (Homo sapiens, UniProt P01116, G12D)", "YES"),
    ("CN1C[C@H](F)C[C@H]1COc1nc(N2[C@@H]3CC[C@H]2CNC3)c2cc(F)c(-c3cc(O)cc4cccnc34)c(F)c2n1 [Example 30]", "His-tagged KRAS G12D protein (Homo sapiens, UniProt P01116, G12D)", "YES"),
    ("Nc1ccc(C(F)(F)F)c(-c2ccc3c(N4C[C@H]5CC[C@@H](C4)N5)nc(OC[C@@]45CCCN4C[C@H](F)C5)nc3c2F)n1 [Example 223]", "His-tagged KRAS G12D protein (Homo sapiens, UniProt P01116, G12D)", "YES"),
    ("N#Cc1c(OC[C@@]23CCCN2C[C@H](F)C3)nc2c(F)c(-c3cc(O)cc4ccccc34)c(Cl)cc2c1N1C[C@H]2CC[C@@H](C1)N2 [Example 61]", "His-tagged KRAS G12D protein (Homo sapiens, UniProt P01116, G12D)", "NO"),
    ("CCc1c(F)ccc2cc(O)cc(-c3cc(C)c4c(N5C[C@H]6CC[C@@H](C5)N6)nc(OC[C@@]56CCCN5C[C@H](F)C6)nc4c3F)c12 [Example 230]", "His-tagged KRAS G12D protein (Homo sapiens, UniProt P01116, G12D)", "YES"),
]
